# Test system: Staphylococcus aureus (ATCC 25923)
# assay.text: Cell viability assay (resazurin) screening for antibacterial activity
# Assay type: cell-based
# Design: key: Positive: A positive result indicates antibacterial activity expressed as growth inhibition; Negative: a negative result indicates no antibacterial activity expressed as bacterial growth at the tested concentration
# measurement.context: single high concentration of 1 mg/mL
observation.type: antibacterial activity, Staphylococcus aureus

>  <compound>
COC(=O)CC1COc2c(cc3c4c2CCCN4CCC3)-c2c(NC(C)(C)C)n3c(-c4cccc5c4OCCO5)csc3[n+]21 (stereo not drawn)

>  <measurement.target>
Staphylococcus aureus (ATCC 25923)

>  <endpoint.value>
Positive

$$$$
>  <compound>
COC(=O)CC1COc2c(cc3c4c2CCCN4CCC3)-c2c(NC(C)(C)C)n3c(-c4ccc(F)cc4)c(C)sc3[n+]21 (stereo not drawn)

>  <measurement.target>
Staphylococcus aureus (ATCC 25923)

>  <endpoint.value>
Positive

$$$$
